target: [3H]ifenprodil binding site, rat forebrain membranes (Rattus norvegicus, UniProt P35439+Q00960); construct: membrane fraction was prepared from frozen adult rat forebrains; tissue Zivic-Miller Laboratories, Inc; experiment: [3H]Ifenprodil binding assay; settings: 4 nM [3H]-ifenprodil, 2 hours at room temperature
Sequence (Q00960 27-1482, other chains not shown): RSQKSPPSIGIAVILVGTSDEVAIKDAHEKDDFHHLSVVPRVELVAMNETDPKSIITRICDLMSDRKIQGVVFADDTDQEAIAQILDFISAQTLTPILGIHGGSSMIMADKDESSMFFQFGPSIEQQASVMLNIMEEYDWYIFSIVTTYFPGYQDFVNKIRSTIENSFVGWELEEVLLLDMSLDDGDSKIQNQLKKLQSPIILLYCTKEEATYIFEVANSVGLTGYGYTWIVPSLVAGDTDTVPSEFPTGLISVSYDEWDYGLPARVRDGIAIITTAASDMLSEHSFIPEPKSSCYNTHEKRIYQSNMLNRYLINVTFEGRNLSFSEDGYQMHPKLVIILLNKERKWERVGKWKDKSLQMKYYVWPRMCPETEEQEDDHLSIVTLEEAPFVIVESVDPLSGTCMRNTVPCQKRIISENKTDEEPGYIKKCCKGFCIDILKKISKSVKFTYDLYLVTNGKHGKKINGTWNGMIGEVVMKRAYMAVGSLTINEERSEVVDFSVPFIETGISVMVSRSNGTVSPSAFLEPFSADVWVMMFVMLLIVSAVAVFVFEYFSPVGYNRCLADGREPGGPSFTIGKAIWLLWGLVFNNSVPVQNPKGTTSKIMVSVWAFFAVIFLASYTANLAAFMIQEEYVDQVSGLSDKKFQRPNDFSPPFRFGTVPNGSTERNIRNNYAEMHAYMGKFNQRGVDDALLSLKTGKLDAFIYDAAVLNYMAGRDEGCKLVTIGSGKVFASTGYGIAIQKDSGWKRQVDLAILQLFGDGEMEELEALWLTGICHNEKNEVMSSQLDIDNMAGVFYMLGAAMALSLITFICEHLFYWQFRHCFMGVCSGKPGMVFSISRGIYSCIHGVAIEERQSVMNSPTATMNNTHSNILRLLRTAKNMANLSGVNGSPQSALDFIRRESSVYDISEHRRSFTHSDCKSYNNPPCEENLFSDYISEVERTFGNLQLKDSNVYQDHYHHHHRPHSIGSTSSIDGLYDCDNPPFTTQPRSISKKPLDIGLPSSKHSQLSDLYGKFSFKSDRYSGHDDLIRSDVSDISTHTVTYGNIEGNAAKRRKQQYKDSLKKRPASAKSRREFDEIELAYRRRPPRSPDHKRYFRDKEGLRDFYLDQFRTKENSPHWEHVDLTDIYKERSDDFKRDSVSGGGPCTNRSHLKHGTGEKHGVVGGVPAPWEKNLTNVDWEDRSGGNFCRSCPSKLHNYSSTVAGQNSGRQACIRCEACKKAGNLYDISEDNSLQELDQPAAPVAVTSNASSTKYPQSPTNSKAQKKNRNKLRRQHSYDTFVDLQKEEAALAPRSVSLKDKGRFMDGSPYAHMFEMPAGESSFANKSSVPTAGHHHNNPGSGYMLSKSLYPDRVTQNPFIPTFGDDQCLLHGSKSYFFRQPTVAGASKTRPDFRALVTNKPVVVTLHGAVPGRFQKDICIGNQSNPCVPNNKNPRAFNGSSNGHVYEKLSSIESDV
pIC50: −log10 of the molar value.
QUANTITY: pIC50

[
  {
    "COMPOUND": "C[C@@H](CCc1ccccc1)N[C@H]1CC[C@H](c2ccc3[nH]c(=O)oc3c2)CC1",
    "COMPARATOR": "=",
    "OBS_VALUE": 7.31
  },
  {
    "COMPOUND": "Cc1ccc(CCCN(C)[C@H]2CC[C@H](c3ccc4[nH]c(=O)oc4c3)CC2)cc1",
    "COMPARATOR": "=",
    "OBS_VALUE": 7.80
  },
  {
    "COMPOUND": "CN(CCCc1ccc(C(F)(F)F)cc1)[C@H]1CC[C@H](c2ccc3[nH]c(=O)oc3c2)CC1",
    "COMPARATOR": "=",
    "OBS_VALUE": 7.42
  },
  {
    "COMPOUND": "O=c1[nH]c2ccc([C@H]3CC[C@H](N(CCCc4ccc(F)cc4)CC4CC4)CC3)cc2o1",
    "COMPARATOR": "=",
    "OBS_VALUE": 6.66
  },
  {
    "COMPOUND": "CN(C)c1ccc(CCCN(C)[C@H]2CC[C@H](c3ccc4[nH]c(=O)oc4c3)CC2)cc1",
    "COMPARATOR": "=",
    "OBS_VALUE": 6.45
  },
  {
    "COMPOUND": "CN(CCCc1ccc(F)cc1)[C@H]1CC[C@@H](c2ccc3[nH]c(=O)oc3c2)CC1",
    "COMPARATOR": "=",
    "OBS_VALUE": 6.73
  },
  {
    "COMPOUND": "COc1ccc([C@H](O)[C@H](C)N[C@H]2CC[C@@H](c3ccc4[nH]c(=O)oc4c3)CC2)cc1 [Example 11b]",
    "COMPARATOR": "<",
    "OBS_VALUE": 6.00
  },
  {
    "COMPOUND": "CN(CCCc1cccc(F)c1)[C@H]1CC[C@H](c2ccc3[nH]c(=O)oc3c2)CC1 [Example 47b]",
    "COMPARATOR": "=",
    "OBS_VALUE": 7.82
  },
  {
    "COMPOUND": "Cc1ccc(CCCN[C@H]2CC[C@@H](c3ccc4[nH]c(=O)oc4c3)CC2)cc1 [Example 13a]",
    "COMPARATOR": "=",
    "OBS_VALUE": 7.42
  },
  {
    "COMPOUND": "CC(C)Cc1ccc(CCCN(C)[C@H]2CC[C@H](c3ccc4[nH]c(=O)oc4c3)CC2)cc1",
    "COMPARATOR": "=",
    "OBS_VALUE": 7.15
  },
  {
    "COMPOUND": "CN(CCCc1ccc(F)cc1)[C@H]1CC[C@H](c2ccc3[nH]c(=O)sc3c2)CC1 [Example 61b]",
    "COMPARATOR": "=",
    "OBS_VALUE": 7.92
  },
  {
    "COMPOUND": "O=C(NCCNC1CCC(c2ccc3[nH]c(=O)oc3c2)CC1)c1ccccc1 (mixture of isomers) [Example 42b]",
    "COMPARATOR": "=",
    "OBS_VALUE": 6.01
  },
  {
    "COMPOUND": "O=c1[nH]c2ccc([C@H]3CC[C@@H](NCCSc4ccccc4)CC3)cc2o1",
    "COMPARATOR": "=",
    "OBS_VALUE": 7.68
  },
  {
    "COMPOUND": "CN(CCSc1ccc(F)cc1)[C@H]1CC[C@H](c2ccc3[nH]c(=O)oc3c2)CC1",
    "COMPARATOR": "=",
    "OBS_VALUE": 7.60
  },
  {
    "COMPOUND": "O=c1[nH]c2ccc([C@H]3CC[C@H](N(CCCc4ccc(F)cc4)Cc4ccoc4)CC3)cc2o1",
    "COMPARATOR": "=",
    "OBS_VALUE": 6.33
  },
  {
    "COMPOUND": "C=CCN(CCCc1ccc(F)cc1)[C@H]1CC[C@H](c2ccc3[nH]c(=O)oc3c2)CC1",
    "COMPARATOR": "=",
    "OBS_VALUE": 6.80
  },
  {
    "COMPOUND": "COc1cc2[nH]c(=O)oc2cc1[C@H]1CC[C@H](N(C)CCCc2ccc(F)cc2)CC1",
    "COMPARATOR": "=",
    "OBS_VALUE": 7.17
  },
  {
    "COMPOUND": "CN(CCCc1ccc(F)cc1Cl)[C@H]1CC[C@H](c2ccc3[nH]c(=O)oc3c2)CC1 [Example 44b]",
    "COMPARATOR": "=",
    "OBS_VALUE": 8.15
  },
  {
    "COMPOUND": "CN(CCCc1nccs1)[C@H]1CC[C@H](c2ccc3[nH]c(=O)oc3c2)CC1",
    "COMPARATOR": "=",
    "OBS_VALUE": 6.50
  },
  {
    "COMPOUND": "C[C@H](N[C@H]1CC[C@H](c2ccc3[nH]c(=O)oc3c2)CC1)[C@H](O)c1ccccc1 (stereo in doubt)",
    "COMPARATOR": "=",
    "OBS_VALUE": 4.65
  },
  {
    "COMPOUND": "CN(CCOc1ccccc1)[C@H]1CC[C@H](c2ccc3[nH]c(=O)oc3c2)CC1",
    "COMPARATOR": "=",
    "OBS_VALUE": 7.28
  },
  {
    "COMPOUND": "CN(CCCc1ccc(F)cc1F)[C@H]1CC[C@H](c2ccc3[nH]c(=O)oc3c2)CC1 [Example 24b]",
    "COMPARATOR": "=",
    "OBS_VALUE": 7.85
  },
  {
    "COMPOUND": "O=c1[nH]c2ccc([C@H]3CC[C@H](NCCSc4ccccc4)CC3)cc2o1",
    "COMPARATOR": "=",
    "OBS_VALUE": 8.40
  },
  {
    "COMPOUND": "CN(CCCc1ccccc1F)[C@H]1CC[C@H](c2ccc3[nH]c(=O)oc3c2)CC1 [Example 46b]",
    "COMPARATOR": "=",
    "OBS_VALUE": 8.05
  },
  {
    "COMPOUND": "CN(CCCc1c(F)cc(F)cc1F)[C@H]1CC[C@H](c2ccc3[nH]c(=O)oc3c2)CC1",
    "COMPARATOR": "=",
    "OBS_VALUE": 8.22
  },
  {
    "COMPOUND": "CC(C)c1ccc(CCCN(C)[C@H]2CC[C@H](c3ccc4[nH]c(=O)oc4c3)CC2)cc1",
    "COMPARATOR": "=",
    "OBS_VALUE": 8.70
  },
  {
    "COMPOUND": "CN(CCCc1ccc(F)cc1)[C@H]1CC[C@H](c2ccc3[nH]c(=O)oc3c2)CC1",
    "COMPARATOR": "=",
    "OBS_VALUE": 8.05
  },
  {
    "COMPOUND": "CCC[C@@H](CSc1ccc(F)cc1)N(CC)[C@H]1CC[C@H](c2ccc3[nH]c(=O)oc3c2)CC1 [Example 36b]",
    "COMPARATOR": "<",
    "OBS_VALUE": 6.00
  },
  {
    "COMPOUND": "CCN([C@H]1CC[C@H](c2ccc3[nH]c(=O)oc3c2)CC1)[C@@H](C)CCc1ccccc1",
    "COMPARATOR": "=",
    "OBS_VALUE": 6.74
  },
  {
    "COMPOUND": "O=c1[nH]c2ccc([C@H]3CC[C@H](NCCCc4ccccc4)CC3)cc2o1",
    "COMPARATOR": "=",
    "OBS_VALUE": 8.40
  },
  {
    "COMPOUND": "O=c1[nH]c2ccc([C@H]3CC[C@H](NCCS(=O)(=O)c4ccccc4)CC3)cc2o1",
    "COMPARATOR": "=",
    "OBS_VALUE": 5.76
  }
]

From: patent US6794402B2
